Biological target: T318I mutant of human CYP51 (Homo sapiens, UniProt Q16850, T324I)
Sequence (Q16850 whole entry T324I): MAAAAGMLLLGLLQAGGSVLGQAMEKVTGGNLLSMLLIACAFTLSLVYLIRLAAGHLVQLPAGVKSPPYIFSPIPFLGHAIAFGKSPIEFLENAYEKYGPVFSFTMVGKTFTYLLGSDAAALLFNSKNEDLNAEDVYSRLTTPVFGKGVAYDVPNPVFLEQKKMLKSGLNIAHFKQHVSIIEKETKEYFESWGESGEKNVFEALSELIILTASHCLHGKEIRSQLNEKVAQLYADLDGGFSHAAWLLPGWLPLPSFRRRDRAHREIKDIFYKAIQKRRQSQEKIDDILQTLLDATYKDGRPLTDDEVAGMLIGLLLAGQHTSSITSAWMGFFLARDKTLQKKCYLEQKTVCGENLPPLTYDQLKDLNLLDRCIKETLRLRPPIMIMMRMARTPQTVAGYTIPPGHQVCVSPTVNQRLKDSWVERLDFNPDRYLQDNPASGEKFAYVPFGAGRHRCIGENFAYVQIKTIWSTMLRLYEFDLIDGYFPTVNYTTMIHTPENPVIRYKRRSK
Test: CYP51 activity assay, inhibition of the T318I mutant
measureName: IC50

Please tell me: IC50 of `O=C(N[C@@H](Cn1ccnc1)c1ccc(Cl)cc1Cl)c1ccc(-c2nnc(-c3ccccc3)o2)cc1` , system T318I mutant of human CYP51 (Homo sapiens, UniProt Q16850, T324I)? > 25 µM
